Recorded Growth controlling degree (%) Prickly sida values for a group of compounds are listed next.
# Test system: prickly sida
# ASSAY: Test Example 2: soil surface treatment, upland pot test
# Format: in vivo, Sida spinosa L.
# APPLIED_CONDITIONS: active ingredient 500 g/ha, observed day 21, 0 = non-treated, 100 = complete kill
ATTRIBUTE_MEASURED: Growth controlling degree (%) Prickly sida

{"COMPOUND": "CCC(C)C(c1cnccc1C(F)(F)F)N(C)C(=O)COc1ccccc1 (stereo not drawn) [I-261]", "ENDPOINT_RESULT": 98}
{"COMPOUND": "CC(C)C(c1cnccc1C(F)(F)F)N(C)C(=O)COc1ccc(Br)cc1 (stereo not drawn) [I-255]", "ENDPOINT_RESULT": 98}
{"COMPOUND": "CC(C)C(c1cnccc1C(F)(F)F)N(C)C(=O)Cc1cccs1 (stereo not drawn) [I-258]", "ENDPOINT_RESULT": 100}
{"COMPOUND": "CC(C)C(c1cnccc1C(F)(F)F)N(C)C(=O)COc1ccc(F)cc1F (stereo not drawn) [Compound I-246]", "ENDPOINT_RESULT": 80}
{"COMPOUND": "CCC(C)C(c1cnccc1C(F)(F)F)N(C)C(=O)Cc1ccccc1 (stereo not drawn) [I-260]", "ENDPOINT_RESULT": 95}
{"COMPOUND": "CCC(CC)C(c1cnccc1C(F)(F)F)N(C)C(=O)Cc1ccccc1 (stereo not drawn) [I-262]", "ENDPOINT_RESULT": 90}
{"COMPOUND": "CC(C)C(c1cnccc1C(F)(F)F)N(C)C(=O)COc1cccc(C(F)(F)F)c1 (stereo not drawn) [I-254]", "ENDPOINT_RESULT": 90}
{"COMPOUND": "CCN(C(=O)COc1ccccc1)C(c1cnccc1C(F)(F)F)C(C)C (stereo not drawn) [I-259]", "ENDPOINT_RESULT": 40}
{"COMPOUND": "CCc1ccc(OCC(=O)N(C)C(c2cnccc2C(F)(F)F)C(C)C)cc1 (stereo not drawn) [I-249]", "ENDPOINT_RESULT": 80}
{"COMPOUND": "CC(C)C(c1cnccc1C(F)(F)F)N(C)C(=O)COc1cc(F)ccc1F (stereo not drawn) [Compound I-245]", "ENDPOINT_RESULT": 70}
{"COMPOUND": "CC(C)C(c1cnccc1C(F)(F)F)N(C)C(=O)CSc1ccccc1 (stereo not drawn) [I-256]", "ENDPOINT_RESULT": 10}
{"COMPOUND": "CCC(CC)C(c1cnccc1C(F)(F)F)N(C)C(=O)COc1ccccc1 (stereo not drawn) [I-263]", "ENDPOINT_RESULT": 70}

###

Recorded Growth controlling degree (%) Corn values for a group of molecules are listed next.
# Tested on: corn
# ASSAY: Test Example 2: soil surface treatment, upland pot test
# Type: in vivo, Zea mays L.
# APPLIED_CONDITIONS: active ingredient 500 g/ha, observed 20th to 28th day
# From the text: Upland field soil was put into a 1/170,000 ha pot, and seed of various plants (barnyardgrass, crabgrass, green foxtail, redroot pigweed, prickly sida, velvetleaf, rice, wheat, corn, soybean) were sown. […]

{"MOLECULE": "CC(C)C(c1cnccc1C(F)(F)F)N(C)C(=O)Cc1csc2ccccc12 (stereo not drawn)", "TARGET_UNDER_TEST": "corn", "UNIT_OF_MEASURE": "%", "Growth controlling degree (%) Corn": 10}
{"MOLECULE": "Cc1cc(Cl)ccc1OCC(=O)N(C)C(c1cnccc1C(F)(F)F)C(C)C (stereo not drawn)", "TARGET_UNDER_TEST": "corn", "UNIT_OF_MEASURE": "%", "Growth controlling degree (%) Corn": 0}
{"MOLECULE": "CC(C)C(c1cnccc1C(F)(F)F)N(C)C(=O)Cc1cccc(F)c1F (stereo not drawn)", "TARGET_UNDER_TEST": "corn", "UNIT_OF_MEASURE": "%", "Growth controlling degree (%) Corn": 30}
{"MOLECULE": "CON=Cc1ccc(CC(=O)N(C)C(c2cnccc2C(F)(F)F)C(C)C)cc1 (racemic)", "TARGET_UNDER_TEST": "corn", "UNIT_OF_MEASURE": "%", "Growth controlling degree (%) Corn": 10}
{"MOLECULE": "CC(C)C(c1cnccc1C(F)(F)F)N(C)C(=O)Cc1ccc(Br)c(F)c1 (racemic)", "TARGET_UNDER_TEST": "corn", "UNIT_OF_MEASURE": "%", "Growth controlling degree (%) Corn": 30}
{"MOLECULE": "CC(C)C(c1cnccc1C(F)(F)F)N(C)S(=O)(=O)C=Cc1ccccc1 (racemic)", "TARGET_UNDER_TEST": "corn", "UNIT_OF_MEASURE": "%", "Growth controlling degree (%) Corn": 0}
{"MOLECULE": "CC(C)C(c1cnccc1C(F)(F)F)N(C)C(=O)Cc1cc(C(F)(F)F)ccc1F (stereo not drawn)", "TARGET_UNDER_TEST": "corn", "UNIT_OF_MEASURE": "%", "Growth controlling degree (%) Corn": 20}
{"MOLECULE": "CC(C)C(c1cnccc1C(F)(F)F)N(C)C(=O)COc1ccccc1 (stereo not drawn)", "TARGET_UNDER_TEST": "corn", "UNIT_OF_MEASURE": "%", "Growth controlling degree (%) Corn": 100}
{"MOLECULE": "CC(C)C(c1cnccc1C(F)(F)F)N(C)C(=O)COc1ccc(F)cc1 (stereo not drawn)", "TARGET_UNDER_TEST": "corn", "UNIT_OF_MEASURE": "%", "Growth controlling degree (%) Corn": 40}
{"MOLECULE": "CC(C)C(c1cnccc1C(F)(F)F)N(C)C(=O)CC1CCCCC1 (stereo not drawn)", "TARGET_UNDER_TEST": "corn", "UNIT_OF_MEASURE": "%", "Growth controlling degree (%) Corn": 20}
{"MOLECULE": "CC(C)C(c1cnccc1C(F)(F)F)N(C)C(=O)C=Cc1cccnc1 (stereo not drawn)", "TARGET_UNDER_TEST": "corn", "UNIT_OF_MEASURE": "%", "Growth controlling degree (%) Corn": 0}
{"MOLECULE": "Cc1ccccc1CC(=O)N(C)C(c1cnccc1C(F)(F)F)C(C)C (stereo not drawn)", "TARGET_UNDER_TEST": "corn", "UNIT_OF_MEASURE": "%", "Growth controlling degree (%) Corn": 20}
{"MOLECULE": "Cc1ccc(C=CC(=O)N(C)C(c2cnccc2C(F)(F)F)C(C)C)cc1 (stereo not drawn)", "TARGET_UNDER_TEST": "corn", "UNIT_OF_MEASURE": "%", "Growth controlling degree (%) Corn": 10}
{"MOLECULE": "CCc1ccc(CC(=O)N(C)C(c2cnccc2C(F)(F)F)C(C)C)cc1 (stereo not drawn)", "TARGET_UNDER_TEST": "corn", "UNIT_OF_MEASURE": "%", "Growth controlling degree (%) Corn": 10}
{"MOLECULE": "CC(C)C(c1cnccc1C(F)(F)F)N(C)S(=O)(=O)c1ccccc1Cl (racemic)", "TARGET_UNDER_TEST": "corn", "UNIT_OF_MEASURE": "%", "Growth controlling degree (%) Corn": 0}
{"MOLECULE": "CC(C)C(c1cnccc1C(F)(F)F)N(C)C(=O)Cc1ccc(Cl)c(Cl)c1 (stereo not drawn)", "TARGET_UNDER_TEST": "corn", "UNIT_OF_MEASURE": "%", "Growth controlling degree (%) Corn": 0}
{"MOLECULE": "CC(C)C(c1cnccc1C(F)(F)F)N(C)C(=O)Cc1ccc(OC(F)F)cc1 (racemic)", "TARGET_UNDER_TEST": "corn", "UNIT_OF_MEASURE": "%", "Growth controlling degree (%) Corn": 50}
{"MOLECULE": "CC(C)C(c1cnccc1C(F)(F)F)N(C)C(=O)C=Cc1ccc(F)cc1 (stereo not drawn)", "TARGET_UNDER_TEST": "corn", "UNIT_OF_MEASURE": "%", "Growth controlling degree (%) Corn": 10}

Values from patent US20050239656A1
